measured_target: recombinant human ARG1 (Homo sapiens, UniProt P05089)
Sequence (P05089 1-322): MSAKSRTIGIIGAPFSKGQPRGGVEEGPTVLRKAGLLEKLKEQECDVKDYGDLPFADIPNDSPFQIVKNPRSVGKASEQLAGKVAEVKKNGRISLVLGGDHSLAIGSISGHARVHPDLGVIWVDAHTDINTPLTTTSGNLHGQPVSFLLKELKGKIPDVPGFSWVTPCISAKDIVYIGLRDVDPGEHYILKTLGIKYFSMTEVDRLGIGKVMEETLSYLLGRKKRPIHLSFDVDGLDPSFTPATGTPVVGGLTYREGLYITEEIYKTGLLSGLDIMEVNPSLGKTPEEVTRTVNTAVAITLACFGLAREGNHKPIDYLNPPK
assay_summary: Recombinant arginase inhibition assay (colorimetric urea detection), ARG1
conditions_used: recombinant human ARG1, 10 mM L-arginine, 37 °C, 1 h, pH 7.4
assay_endpoint: pIC50
Answers are plain numbers, as −log10 of the molar value.

Challenge: Output measured pIC50 for this item: CN(C)C[C@@H]1CC[C@@H](CCB(O)O)C[C@]1(N)C(=O)O
Response given: 7.77

Just for reference, paper PMC9406419 is where these values come from.
